Listing of recorded solubility by entry.
Assay notes: Solubility of diastereomeric salts in solvents
Assay type: physicochemical
Particulars: 20 °C, organic solvent or mixture; in EtOAc; read-out: Solubility @ 20-30° C.
Excerpt: Thus, in another highly preferred embodiment, DCM is used in step c).

* COc1cc(C(F)(F)F)c(OC)cc1[C@@H]1CCCNC1 [drawing 39] | < 10000 µg/mL

The compound listed as `COc1cc(C(F)(F)F)c(OC)cc1[C@H]1CCCNC1` shows solubility equal to < 10000 µg/mL

---

Assay notes: Solubility of diastereomeric salts in solvents
Assay type: physicochemical
Particulars: 20 °C, organic solvent or mixture; in IPAC; read-out: Solubility @ 20-30° C.
Observed property: solubility

- COc1cc(C(F)(F)F)c(OC)cc1[C@@H]1CCCNC1 [drawing 39]: < 10000 µg/mL

Query compound follows.
The compound listed as `COc1cc(C(F)(F)F)c(OC)cc1[C@H]1CCCNC1` shows solubility equal to < 10000 µg/mL
